# experimental_protocol: In Vitro Microsome Stability Assay (human)
# Type: in vitro ADME
# condition: human liver microsomes, 30 min w/ NADPH
measure: Liver Microsome Stability-% Left after 30 min w/ NADPH (%) Human

Check out these entries, answers already filled in.
C[C@H]1CN(S(=O)(=O)c2ccc(N(C)C)cc2)CCCN([C@@H](C)C2CCCCC2)CCCN(S(=O)(=O)N2CCc3cc(Cl)ccc3C2)C1 | 74.1
CN(C)c1ccc(S(=O)(=O)N2CCCN(CC3CCCCC3)CCCN(S(=O)(=O)N3CCC(c4ccccc4)CC3)CC(=O)C2)cc1 | 5.43
COc1cc(F)ccc1N1CCN(S(=O)(=O)N2CCCN(CC3CCCCC3)CCCN(S(=O)(=O)c3ccc(N(C)C)cc3)C[C@H](C)C2)CC1 | 48.8
C[C@H]1CN(S(=O)(=O)c2ccc(N(C)C)cc2)CCCN(CC2CCCCC2)CCCN(S(=O)(=O)N2CCc3c(C#N)cccc3C2)C1 | 4.28

A = C[C@H]1CN(S(=O)(=O)c2ccc(N(C)C)cc2)CCCN(CC2CCCC2)CCCN(S(=O)(=O)N2CCc3cc(Cl)ccc3C2)C1
B = CCC(C)CN1CCCN(S(=O)(=O)c2ccc(N(C)C)cc2)C[C@H](C)CN(S(=O)(=O)N2CCc3cc(Cl)ccc3C2)CCC1 (stereo partly shown)
Which of the two gives a bigger number for Liver Microsome Stability-% Left after 30 min w/ NADPH (%) Human: A or B ? Your answer should be the label attached to the chosen record.
A

P = COCCN1CCCN(S(=O)(=O)c2ccc(N(C)C)cc2)C[C@H](C)CN(S(=O)(=O)N2CCc3cc(Cl)ccc3C2)CCC1
Q = C[C@H]1CN(S(=O)(=O)c2ccc(N(C)C)cc2)CCCN(CC2CCCCC2)CCCN(S(=O)(=O)N2CCNCC2)C1
Returns: the label, P or Q , whose recorded Liver Microsome Stability-% Left after 30 min w/ NADPH (%) Human is the lower number. Give the chosen item's label as your response.
P
(P: 0.41%, Q: 17.8%)

a = Cc1ccc(CN2CCCN(S(=O)(=O)c3ccc(N(C)C)cc3)C[C@H](C)CN(S(=O)(=O)N3CCc4cc(Cl)ccc4C3)CCC2)cc1
b = CN(C)c1ccc(S(=O)(=O)N2C/C=C\CN(S(=O)(=O)N3CCC(c4ccccc4)CC3)CCCN(CC3CCCCC3)CCC2)cc1
c = Cc1ccc(N2CCN(S(=O)(=O)N3CCCN(CC4CCCCC4)CCCN(S(=O)(=O)c4ccc(N(C)C)cc4)C[C@H](C)C3)CC2)cc1
In this exercise, place the 3 compounds in ascending sequence of their recorded Liver Microsome Stability-% Left after 30 min w/ NADPH (%) Human. // list labels; follow requested order
b, c, a
(b: 22.1%, c: 41.9%, a: 84.5%)

1 = COc1cc(F)ccc1N1CCN(S(=O)(=O)N2CCCN([C@@H](C)C3CCCCC3)CCCN(S(=O)(=O)c3ccc(N(C)C)cc3)C[C@H](C)C2)C[C@H]1C
2 = C[C@H]1CN(S(=O)(=O)c2ccc(N(C)C)cc2)CCCN(CC2CCCCC2)CCCN(S(=O)(=O)N2CC(c3ccccc3)C2)C1
Hi team, can someone confirm which has the larger Liver Microsome Stability-% Left after 30 min w/ NADPH (%) Human: 1 or 2 ? Thanks. Your answer should be the label attached to the chosen record.
1
